test system: Urease; test: Test for urease-inhibiting effect in soil (NH3-N release from urea, closed vessel with ammonia trap); type: biochemical; details: Konz. 0,1 % HS-N-bez.; soil at 40 % of maximum water capacity, 50 mg urea; t50 = day after start at which inhibition of urea hydrolysis is still 50 %
assay readout: t50-Wert

{"compound": "CCCNP(N)(=NP(N)(N)=S)NCCC [Verbindung 3]", "reading": "10,4 d"}
{"compound": "CCCCNP(N)(=NP(N)(N)=O)NCCCC [Verbindung 2]", "reading": "8,8 d"}
{"compound": "CCCNP(N)(=NP(N)(N)=O)NCCC [Verbindung 4]", "reading": "9,6 d"}
{"compound": "CCCNP(N)(N)=NP(N)(N)=S [Verbindung 6]", "reading": "14,2 d"}
{"compound": "CCCCNP(N)(N)=NP(N)(N)=S [Verbindung 5]", "reading": "14,5 d"}

// next item, t50-Wert requested
Query: Returns the measured t50-Wert for the input compound. Input: CCCCNP(N)(=NP(N)(N)=S)NCCCC [Verbindung 1]
Reply: 9,4 d
